assay: Titration (pKa); format: physicochemical; conditions: 66% dmf-34% h2o, titration (66% DMF-34% H2O); third pKa; read-out: pKa (third value)
Collected pKa values appear next to each entry.
When you answer, write just the number.

compound | numeric.readout
Cc1nnc(SCC2=C(C(=O)O)N3C(=O)C(NC(=O)[C@H](NC(=O)c4cc(O)c(O)c(O)c4O)c4ccc(O)cc4)C3SC2)s1 (stereo partly shown) [Example 14] | 9.69
Cn1nnnc1SCC1=C(C(=O)O)N2C(=O)C(NC(=O)[C@H](NC(=O)c3cc(O)ccc3O)c3ccc(O)cc3)C2SC1 (stereo partly shown) [Example 15] | 12.5

Okay, next one:
Challenge: Given the compound Cn1nnnc1SCC1=C(C(=O)O)N2C(=O)C(NC(=O)[C@H](NC(=O)c3ccc(O)cc3O)c3ccc(O)cc3)C2SC1 (stereo partly shown) [Example 17] , write its reported pKa.
Response given: 12.1

----------
system: Escherichia coli
The label is YES for MIC below 20 µg/mL and NO for MIC equal to or exceeding 20 µg/mL.

For orientation, consider the following solved cases.
molecule | group
Cn1nnnc1SCC1=C(C(=O)O)N2C(=O)C(NC(=O)[C@H](NC(=O)c3cccc(O)c3O)c3ccc(O)cc3)C2SC1 (stereo partly shown) [Example 3] | YES
Cn1nnnc1SCC1=C(C(=O)O)N2C(=O)C(NC(=O)[C@H](NC(=O)c3cccc(O)c3O)c3ccccc3)C2SC1 (stereo partly shown) [Example 1] | YES
Cn1nnnc1SCC1=C(C(=O)O)N2C(=O)C(NC(=O)[C@H](NC(=O)c3ccc(O)c(O)c3)c3ccc(O)cc3)C2SC1 (stereo partly shown) [Example 2] | YES
Cc1nnc(SCC2=C(C(=O)O)N3C(=O)C(NC(=O)[C@H](NC(=O)c4c(O)cccc4O)c4ccc(O)cc4)C3SC2)s1 (stereo partly shown) [Example 5] | NO
Cn1nnnc1SCC1=C(C(=O)O)N2C(=O)C(NC(=O)[C@H](NC(=O)c3cc(O)ccc3O)c3ccc(O)cc3)C2SC1 (stereo partly shown) [Example 15] | NO

Challenge: Is MIC strictly under 20 µg/mL for the entry Cc1nnc(SCC2=C(C(=O)O)N3C(=O)C(NC(=O)[C@H](NC(=O)c4ccc(N)c(N)c4)c4ccc(O)cc4)C3SC2)s1 (stereo partly shown) [Example 13] ?
Response given: YES

Challenge: For this molecule, is MIC lower than 20 µg/mL? O=C(O)C1=C(Cl)CSC2C(NC(=O)[C@H](NC(=O)c3cccc(O)c3O)c3ccccc3)C(=O)N12 (stereo partly shown) [Example 18]
Response given: NO

----------
assay: Titration (pKa); format: physicochemical; settings: 66% dmf-34% h2o, titration (66% DMF-34% H2O); second pKa; read-out: pKa (second value)
recorded.metric: pKa
Could you respond with only the numeric value?

Worked set:
compound | pKa
Cn1nnnc1SCC1=C(C(=O)O)N2C(=O)C(NC(=O)[C@H](NC(=O)c3ccccc3O)c3ccc(O)cc3)C2SC1 (stereo partly shown) | 10
Cc1nnc(SCC2=C(C(=O)O)N3C(=O)C(NC(=O)[C@H](NC(=O)c4cccc(O)c4)c4ccc(O)cc4)C3SC2)s1 (stereo partly shown) | 11.9

Challenge: Assign pKa to the following record: Cn1nnnc1SCC1=C(C(=O)O)N2C(=O)C(NC(=O)[C@H](NC(=O)c3ccc(O)cc3O)c3ccc(O)cc3)C2SC1 (stereo partly shown)
Response given: 9.58

Challenge: Give pKa for Cn1nnnc1SCC1=C(C(=O)O)N2C(=O)C(NC(=O)[C@H](NC(=O)c3cccc(O)c3O)c3ccc(O)cc3)C2SC1 (stereo partly shown)
Response given: 8.83

Challenge: Using known records, supply pKa for Cn1c(SCC2=C(C(=O)O)N3C(=O)C(NC(=O)[C@H](NC(=O)c4cccc(O)c4O)c4ccc(O)cc4)C3SC2)nnc(O)c1=O (stereo partly shown)
Response given: 8.89

Challenge: Please give the documented pKa of NC(=O)OCC1=C(C(=O)O)N2C(=O)C(NC(=O)C(NC(=O)c3cccc(O)c3O)c3ccccc3)C2SC1 (stereo not shown)
Response given: 8.7

Challenge: Given CC(=O)OCC1=C(C(=O)O)N2C(=O)C(NC(=O)C(NC(=O)c3cccc(O)c3O)c3ccccc3)C2SC1 (stereo not shown) , respond with its pKa.
Response given: 8.72

The reported measurements were obtained from patent US4319028A.
